All values here come from ChEMBL document CHEMBL1268971.

assay: Solubility of the compound at pH 7; type: physicochemical; conditions: buffer
property_measured: solubility (µM)

P: CN1CCN(c2ccc(OC(F)(F)F)c(Nc3ncc4c(n3)-c3c(c(C(N)=O)nn3C)CC4)c2)CC1
Q: C=Cn1nc(C(N)=O)c2c1-c1nc(Nc3cc(N4CCN(C)CC4)ccc3OC(F)(F)F)ncc1CC2
R: Cn1nc(C(N)=O)c2c1-c1nc(Nc3cc(NC4CCNC4)ccc3OC(F)(F)F)ncc1CC2 (centres undefined)
Incoming: Ascending by solubility, please. Give me the labels in the order the question wants.
Outgoing: Q, P, R
(Q: 8 µM, P: 72 µM, R: 171 µM)
